Target: Jnk1a1 (Homo sapiens, UniProt P45983)
Sequence (P45983 1-384 isoform P45983-2): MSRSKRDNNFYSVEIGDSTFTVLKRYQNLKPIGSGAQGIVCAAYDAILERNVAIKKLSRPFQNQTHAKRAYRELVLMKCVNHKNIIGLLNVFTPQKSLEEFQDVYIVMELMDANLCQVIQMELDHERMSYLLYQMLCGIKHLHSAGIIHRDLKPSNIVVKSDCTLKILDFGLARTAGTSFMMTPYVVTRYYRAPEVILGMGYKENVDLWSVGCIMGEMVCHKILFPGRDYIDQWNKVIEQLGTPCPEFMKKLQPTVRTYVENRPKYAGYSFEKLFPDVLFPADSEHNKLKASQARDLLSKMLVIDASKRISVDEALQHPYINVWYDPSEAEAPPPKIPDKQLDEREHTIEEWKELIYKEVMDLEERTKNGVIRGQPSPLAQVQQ
Assay: Jnk1a1 kinase assay
Format: biochemical
Settings: 10 μM compound; read-out: Jnk1a1 percent of inhibition
Protocol: General description of the kinase assays: the kinase activity was assayed in 96-well microtiter plates at a final compound concentration of 10 μM in a total volume of 50 μl. Compounds were dissolved in 100% DMSO to prepare a 10 mM stock solution and than diluted with buffer to reach a 10 μM (or the required) final concentration. The kinase concentration was used to yield 10% ATP turn over. […] The radioactivity was counted on a Microbeta microplate counter.
This listing pairs molecules with measured inhibition at 10 µM.
Could you kindly put the unit after your number?

Field: example entries. Status: answers known.
| MOLECULE | ASSAY_TARGET | inhibition at 10 µM |
| --- | --- | --- |
| COc1cccc(Nc2nc(C3CC3)nc3sc4ccccc4c23)c1 [Compound 20] | Jnk1a1 (Homo sapiens, UniProt P45983) | -5% |
| Fc1cccc(Nc2nc(C3CC3)nc3sc4ccccc4c23)c1 [Compound 16] | Jnk1a1 (Homo sapiens, UniProt P45983) | -4% |

Form field inhibition at 10 µM, entry Fc1ccccc1Nc1ncnc2sc3c(c12)CCCC3 [Compound 1] : -4%

Form field inhibition at 10 µM, entry FC(F)(F)c1cccc(Nc2nc(C3CC3)nc3sc4c(c23)CCCC4)c1 [Compound 11] : -3%

Form field inhibition at 10 µM, entry Clc1ccc(Nc2ncnc3sc4c(c23)CCCC4)cc1 [Compound 7] : -7%

Form field inhibition at 10 µM, entry Clc1cccc(Nc2ncnc3sc4ccccc4c23)c1 [Compound 22] : 0%

Form field inhibition at 10 µM, entry Clc1cccc(Nc2nc(C3CC3)nc3sc4ccccc4c23)c1 [Compound 17] : -8%

Form field inhibition at 10 µM, entry COc1cccc(Nc2nc(C3CC3)nc3sc4c(c23)CCCC4)c1 [Compound 15] : -3%

* * *

This listing pairs molecules with measured inhibition at 10 µM.
target: ROCK2 (Homo sapiens, UniProt O75116); assay: ROCK2 kinase assay; assay type: biochemical; conditions: 10 μM compound; read-out: ROCK2 percent of inhibition
Sequence (O75116 whole entry, species assumed): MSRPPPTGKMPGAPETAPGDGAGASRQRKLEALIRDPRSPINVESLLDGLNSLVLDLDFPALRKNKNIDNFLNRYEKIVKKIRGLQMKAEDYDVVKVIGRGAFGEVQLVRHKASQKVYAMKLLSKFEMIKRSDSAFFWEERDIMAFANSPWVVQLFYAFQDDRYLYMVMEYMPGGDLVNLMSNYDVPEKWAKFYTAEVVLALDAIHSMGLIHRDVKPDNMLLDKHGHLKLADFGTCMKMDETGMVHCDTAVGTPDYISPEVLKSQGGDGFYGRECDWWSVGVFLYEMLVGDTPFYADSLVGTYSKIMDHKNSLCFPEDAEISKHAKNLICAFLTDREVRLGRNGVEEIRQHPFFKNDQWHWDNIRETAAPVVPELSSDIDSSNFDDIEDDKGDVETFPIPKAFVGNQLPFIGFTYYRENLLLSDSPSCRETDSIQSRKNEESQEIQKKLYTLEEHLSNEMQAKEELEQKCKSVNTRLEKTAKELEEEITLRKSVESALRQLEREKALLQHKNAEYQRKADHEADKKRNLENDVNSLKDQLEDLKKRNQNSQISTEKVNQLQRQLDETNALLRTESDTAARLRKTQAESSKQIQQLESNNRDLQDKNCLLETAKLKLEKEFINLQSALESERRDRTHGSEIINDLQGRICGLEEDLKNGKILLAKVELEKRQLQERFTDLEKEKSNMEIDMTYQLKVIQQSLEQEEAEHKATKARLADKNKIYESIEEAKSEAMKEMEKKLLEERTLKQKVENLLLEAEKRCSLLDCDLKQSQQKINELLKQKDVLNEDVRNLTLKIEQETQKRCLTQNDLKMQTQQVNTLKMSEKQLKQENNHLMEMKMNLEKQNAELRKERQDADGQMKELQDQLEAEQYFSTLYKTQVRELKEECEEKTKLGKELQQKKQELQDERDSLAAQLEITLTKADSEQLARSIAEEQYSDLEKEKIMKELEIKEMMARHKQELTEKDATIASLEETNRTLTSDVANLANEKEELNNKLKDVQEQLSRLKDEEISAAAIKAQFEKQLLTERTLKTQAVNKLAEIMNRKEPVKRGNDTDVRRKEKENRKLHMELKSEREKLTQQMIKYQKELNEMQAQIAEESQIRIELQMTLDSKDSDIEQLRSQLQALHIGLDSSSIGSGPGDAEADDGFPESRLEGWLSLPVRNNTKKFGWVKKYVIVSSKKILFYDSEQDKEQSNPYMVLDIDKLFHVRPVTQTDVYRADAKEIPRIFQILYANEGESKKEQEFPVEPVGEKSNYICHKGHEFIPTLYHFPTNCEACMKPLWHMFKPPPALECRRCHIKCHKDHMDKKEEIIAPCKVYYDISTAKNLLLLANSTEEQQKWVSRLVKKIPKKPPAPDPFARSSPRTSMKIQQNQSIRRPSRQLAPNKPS
Give the value, in units of %, as a plain number.

| SMI | UNIT_TAG | OBSERVED_MEASUREMENT |
| --- | --- | --- |
| O=[N+]([O-])c1cccc(Nc2nc(C3CC3)nc3sc4c(c23)CCCC4)c1 | % | 3 |
| Clc1cccc(Nc2nc(C3CC3)nc3sc4c(c23)CCCC4)c1 | % | 5 |
| Clc1ccc(Nc2ncnc3sc4c(c23)CCCC4)cc1 | % | 3 |
| Clc1cccc(Nc2ncnc3sc4ccccc4c23)c1 | % | 4 |
| Fc1cccc(Nc2nc(C3CC3)nc3sc4ccccc4c23)c1 | % | 9 |
| Brc1cccc(Nc2nc(C3CC3)nc3sc4ccccc4c23)c1 | % | 4 |

Form field inhibition at 10 µM, entry FC(F)(F)c1cccc(Nc2nc(C3CC3)nc3sc4c(c23)CCCC4)c1 : 6

Form field inhibition at 10 µM, entry COc1cccc(Nc2nc(C3CC3)nc3sc4ccccc4c23)c1 : 0

Form field inhibition at 10 µM, entry Brc1cccc(Nc2ncnc3sc4c(c23)CCCC4)c1 : 12

Form field inhibition at 10 µM, entry Fc1cccc(Nc2ncnc3sc4ccccc4c23)c1 : 4
